- System: BHK
- assayExplanation: Modulation of CFTR F508 deletion mutant expressed in BHK cells assessed as increase in forskolin-stimulated iodine influx at 10 uM after 5 mins […] (reference value: 1.4 +/- 0.4 nM/s)
- Format: cell-based
Listed here: items and their measured Activity.
measurementType: Activity (nM/s)

[[record]]
smi = "Cc1ccc(O)c(-c2cc(-c3ccc(C#CCNS(=O)(=O)c4cccc5c(N(C)C)cccc45)cc3)[nH]n2)c1"
unittext = "nM/s"
recordedresult = 1.7

[[record]]
smi = "Cc1ccc(O)c(-c2cc(-c3ccc([N+](=O)[O-])cc3)[nH]n2)c1"
unittext = "nM/s"
recordedresult = 5.1

[[record]]
smi = "Cc1ccc(O)c(-c2cc(-c3ccc(I)cc3)[nH]n2)c1"
unittext = "nM/s"
recordedresult = 5.1

